Attribution: patent US11795460B2

Tested on: TTR
Protocol Text: EC50 and maximum editing in primary cyno hepatocytes treated with LNP formulated U-depleted Spy Cas9 mRNA and sgRNAs (Tables 20, 22)
Assay type: cell-based, cynomolgus monkey
Parameters: key: % of sequence reads with indels or substitutions over total reads
Condition Set: Table 22, LNP with U-depleted Spy Cas9 mRNA and cyno specific sgRNAs, dose response
Strand notation (5' to 3'): a small letter for the sugar, then the base; units joined by * are phosphorothioate-linked, units joined directly phosphodiester-linked; [ ] holds rarer units or linkages, { } end groups; capitals alone tell only the bases. m = 2'-O-methyl; r = 2'-OH (RNA)
Measured Quantity: Max Editing

Fill blank: measured Max Editing of the molecule G000502: TTR Cyno specific sgRNA modified sequence, SEQ ID No. 114; guide sequence of CR000689; cross homologous between mouse and cyno (nucleic acid) guide: mA*mC*mA*rCrArArArUrArCrCrArGrUrCrCrArGrCrGrGrUrUrUrUrArGrAmGmCmUmAmGmAmAmAmUmAmGmCrArArGrUrUrArArArArUrArArGrGrCrUrArGrUrCrCrGrUrUrArUrCrAmAmCmUmUmGmAmAmAmAmAmGmUmGmGmCmAmCmCmGmAmGmUmCmGmGmUmGmCmU*mU*mU*mU is ____. 100.05
